B1: library; a variant is named by its letters at N, in order (parent)
chain: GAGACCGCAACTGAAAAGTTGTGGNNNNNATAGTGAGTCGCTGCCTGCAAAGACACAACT

- Variants of: B1
- test: ligation selection enrichment (abundance after / before one-round selection) (fold); higher = more template-directed ligation activity
- assay.setup: with T7Psub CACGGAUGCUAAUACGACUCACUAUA; MgCl2 25 mM; 42 °C; 4 h; pH 8.5
Label no (0) if ligation selection enrichment falls below 0.2; label yes (1) in every other case.

>>> assigned_class("GAGACCGCAACTGAAAAGTTGTGGACCTTATAGTGAGTCGCTGCCTGCAAAGACACAACT [ACCTT]")
"no (0)"
>>> assigned_class("GAGACCGCAACTGAAAAGTTGTGGTAACAATAGTGAGTCGCTGCCTGCAAAGACACAACT [TAACA]")
"no (0)"
>>> assigned_class("GAGACCGCAACTGAAAAGTTGTGGGTGGAATAGTGAGTCGCTGCCTGCAAAGACACAACT [GTGGA]")
"yes (1)"
>>> assigned_class("GAGACCGCAACTGAAAAGTTGTGGATTTAATAGTGAGTCGCTGCCTGCAAAGACACAACT [ATTTA]")
"yes (1)"
>>> assigned_class("GAGACCGCAACTGAAAAGTTGTGGGGGGAATAGTGAGTCGCTGCCTGCAAAGACACAACT [GGGGA]")
"yes (1)"
>>> assigned_class("GAGACCGCAACTGAAAAGTTGTGGTCTAAATAGTGAGTCGCTGCCTGCAAAGACACAACT [TCTAA]")
"no (0)"
>>> assigned_class("GAGACCGCAACTGAAAAGTTGTGGTCTAGATAGTGAGTCGCTGCCTGCAAAGACACAACT [TCTAG]")
"yes (1)"
>>> assigned_class("GAGACCGCAACTGAAAAGTTGTGGTAGAAATAGTGAGTCGCTGCCTGCAAAGACACAACT [TAGAA]")
"yes (1)"
>>> assigned_class("GAGACCGCAACTGAAAAGTTGTGGGAGGCATAGTGAGTCGCTGCCTGCAAAGACACAACT [GAGGC]")
"no (0)"
>>> assigned_class("GAGACCGCAACTGAAAAGTTGTGGGACTCATAGTGAGTCGCTGCCTGCAAAGACACAACT [GACTC]")
"no (0)"
>>> assigned_class("GAGACCGCAACTGAAAAGTTGTGGGCTCCATAGTGAGTCGCTGCCTGCAAAGACACAACT [GCTCC]")
"yes (1)"
>>> assigned_class("GAGACCGCAACTGAAAAGTTGTGGCAGGTATAGTGAGTCGCTGCCTGCAAAGACACAACT [CAGGT]")
"no (0)"
>>> assigned_class("GAGACCGCAACTGAAAAGTTGTGGACGCGATAGTGAGTCGCTGCCTGCAAAGACACAACT [ACGCG]")
"yes (1)"
>>> assigned_class("GAGACCGCAACTGAAAAGTTGTGGGAGCCATAGTGAGTCGCTGCCTGCAAAGACACAACT [GAGCC]")
"no (0)"
>>> assigned_class("GAGACCGCAACTGAAAAGTTGTGGGTATGATAGTGAGTCGCTGCCTGCAAAGACACAACT [GTATG]")
"yes (1)"
>>> assigned_class("GAGACCGCAACTGAAAAGTTGTGGTTTCTATAGTGAGTCGCTGCCTGCAAAGACACAACT [TTTCT]")
"yes (1)"
>>> assigned_class("GAGACCGCAACTGAAAAGTTGTGGTGGTGATAGTGAGTCGCTGCCTGCAAAGACACAACT [TGGTG]")
"yes (1)"
>>> assigned_class("GAGACCGCAACTGAAAAGTTGTGGAATGTATAGTGAGTCGCTGCCTGCAAAGACACAACT [AATGT]")
"no (0)"
>>> assigned_class("GAGACCGCAACTGAAAAGTTGTGGCCTATATAGTGAGTCGCTGCCTGCAAAGACACAACT [CCTAT]")
"no (0)"
>>> assigned_class("GAGACCGCAACTGAAAAGTTGTGGTATACATAGTGAGTCGCTGCCTGCAAAGACACAACT [TATAC]")
"yes (1)"
>>> assigned_class("GAGACCGCAACTGAAAAGTTGTGGTAGCCATAGTGAGTCGCTGCCTGCAAAGACACAACT [TAGCC]")
"no (0)"
>>> assigned_class("GAGACCGCAACTGAAAAGTTGTGGGACTAATAGTGAGTCGCTGCCTGCAAAGACACAACT [GACTA]")
"no (0)"
>>> assigned_class("GAGACCGCAACTGAAAAGTTGTGGCGCCCATAGTGAGTCGCTGCCTGCAAAGACACAACT [CGCCC]")
"no (0)"
>>> assigned_class("GAGACCGCAACTGAAAAGTTGTGGGGGATATAGTGAGTCGCTGCCTGCAAAGACACAACT [GGGAT]")
"yes (1)"
>>> assigned_class("GAGACCGCAACTGAAAAGTTGTGGATCATATAGTGAGTCGCTGCCTGCAAAGACACAACT [ATCAT]")
"yes (1)"
>>> assigned_class("GAGACCGCAACTGAAAAGTTGTGGCCCACATAGTGAGTCGCTGCCTGCAAAGACACAACT [CCCAC]")
"no (0)"
>>> assigned_class("GAGACCGCAACTGAAAAGTTGTGGATACAATAGTGAGTCGCTGCCTGCAAAGACACAACT [ATACA]")
"yes (1)"
>>> assigned_class("GAGACCGCAACTGAAAAGTTGTGGCGCCTATAGTGAGTCGCTGCCTGCAAAGACACAACT [CGCCT]")
"yes (1)"
>>> assigned_class("GAGACCGCAACTGAAAAGTTGTGGTGTGAATAGTGAGTCGCTGCCTGCAAAGACACAACT [TGTGA]")
"yes (1)"
>>> assigned_class("GAGACCGCAACTGAAAAGTTGTGGTGGGTATAGTGAGTCGCTGCCTGCAAAGACACAACT [TGGGT]")
"yes (1)"
>>> assigned_class("GAGACCGCAACTGAAAAGTTGTGGAGAATATAGTGAGTCGCTGCCTGCAAAGACACAACT [AGAAT]")
"yes (1)"
>>> assigned_class("GAGACCGCAACTGAAAAGTTGTGGCTAATATAGTGAGTCGCTGCCTGCAAAGACACAACT [CTAAT]")
"yes (1)"
>>> assigned_class("GAGACCGCAACTGAAAAGTTGTGGCCTTAATAGTGAGTCGCTGCCTGCAAAGACACAACT [CCTTA]")
"no (0)"
>>> assigned_class("GAGACCGCAACTGAAAAGTTGTGGCGTGGATAGTGAGTCGCTGCCTGCAAAGACACAACT [CGTGG]")
"yes (1)"
>>> assigned_class("GAGACCGCAACTGAAAAGTTGTGGGTACGATAGTGAGTCGCTGCCTGCAAAGACACAACT [GTACG]")
"yes (1)"
>>> assigned_class("GAGACCGCAACTGAAAAGTTGTGGCACGCATAGTGAGTCGCTGCCTGCAAAGACACAACT [CACGC]")
"no (0)"
>>> assigned_class("GAGACCGCAACTGAAAAGTTGTGGATGCGATAGTGAGTCGCTGCCTGCAAAGACACAACT [ATGCG]")
"yes (1)"
>>> assigned_class("GAGACCGCAACTGAAAAGTTGTGGTTGTAATAGTGAGTCGCTGCCTGCAAAGACACAACT [TTGTA]")
"yes (1)"
>>> assigned_class("GAGACCGCAACTGAAAAGTTGTGGGCTGCATAGTGAGTCGCTGCCTGCAAAGACACAACT [GCTGC]")
"no (0)"
>>> assigned_class("GAGACCGCAACTGAAAAGTTGTGGTCCACATAGTGAGTCGCTGCCTGCAAAGACACAACT [TCCAC]")
"no (0)"
>>> assigned_class("GAGACCGCAACTGAAAAGTTGTGGAGGATATAGTGAGTCGCTGCCTGCAAAGACACAACT [AGGAT]")
"yes (1)"
>>> assigned_class("GAGACCGCAACTGAAAAGTTGTGGTGGCAATAGTGAGTCGCTGCCTGCAAAGACACAACT [TGGCA]")
"yes (1)"
